Reported melting point is given for each of the following compounds.
REPORTED ENDPOINT: melting point

>>> print(df.to_string())
                                   compound  reported_endpoint  value_measured
0       Cc1ccc(Nc2nnc(Cc3ccncc3)c(C)c2C)cc1      melting point     68 to 70 °C
1      CC(C)(C)Nc1cc(N2CCNCC2)nc(N2CCCC2)n1      melting point   140 to 145 °C
2  CNc1cc(SC2CCN(C)CC2)c(Cl)cc1[N+](=O)[O-]      melting point          102 °C
3  CC(C)NC(=O)OC1SCN(c2ccccc2)C1=O (stereo not given)      melting point   130 to 132 °C
4  Cc1ccccc1C(=O)Nc1ccc(C(=O)N2Cc3ccccc3Sc3ccccc32)cc1      melting point   145 to 148 °C
